These data points were gathered from ChEMBL document CHEMBL1201862.

test system: NCI-H226; experiment: NCI tumour cell line growth inhibition, 48 h
The source made the active and inactive calls. Rule as the data show it: active = GI50 up to about 1.1 µM and inactive = higher.
Please provide measured GI50 for the entries that follow.

Inquiry: Supply GI50 value. Item: COC(=O)C(NC(=O)CSc1nnc(COc2ccc(Cl)cc2)n1-c1ccccc1)C(C)C (stereo unspecified)
Reply text: 17 µM (inactive)

Inquiry: Supply GI50 value. Item: C=C1CC2OC(=O)C(=C)C2C(O)C2C(=C)CCC12 (stereo unspecified)
Reply text: 20.4 µM (inactive)

Inquiry: Supply GI50 value. Item: COc1cc(NC(C)c2ccc3c(c2)OCCO3)cc(OC)c1OC (stereo unspecified)
Reply text: 24.3 µM (inactive)

Inquiry: Supply GI50 value. Item: OC(c1cccnc1)C(F)(F)c1nc2ccccc2o1 (stereo unspecified)
Reply text: > 100 µM (inactive)

Inquiry: Supply GI50 value. Item: CCCCC[C@H](O)[C@H](C)C=C1SCCCS1
Reply text: > 100 µM (inactive)

Inquiry: Supply GI50 value. Item: COc1ccc(CC(C)NCC(O)c2ccc(O)c(NC=O)c2)cc1 (stereo unspecified)
Reply text: > 100 µM (inactive)

* * *

tested on: M14; assay: NCI tumour cell line growth inhibition, 48 h
Activity calls are given as the source filed them. Rule as the data show it: active = GI50 up to about 1.1 µM and inactive = higher.
Please provide measured GI50 for the entries that follow.

Inquiry: Supply GI50 value. Item: COC(=O)C1=CS/C(=C2\S[C@@H]3[C@H](S2)[C@H]2C=C[C@@H]3C2)S1
Reply text: 48.3 µM (inactive)

Inquiry: Supply GI50 value. Item: CSc1nc(=S)[nH]c2c1c(C)nn2-c1ccccc1
Reply text: 40.5 µM (inactive)

Inquiry: Supply GI50 value. Item: COc1cc(OCc2nc3cc(C(F)(F)F)ccc3nc2-c2ccccc2)cc(OC)c1OC
Reply text: 45.4 µM (inactive)

Inquiry: Supply GI50 value. Item: C=C(c1ccccc1N)[C@@]1(O)C[C@H](/C(=C\C)CO)C[C@@H]1NCc1ccccc1
Reply text: 15.2 µM (inactive)

Inquiry: Supply GI50 value. Item: NC[C@H]1Nc2ccccc2[C@@H](O)C1O (stereo partly specified)
Reply text: > 100 µM (inactive)

Inquiry: Supply GI50 value. Item: O=C(O)c1ccccc1C(=O)c1ccco1
Reply text: > 100 µM (inactive)

Inquiry: Supply GI50 value. Item: COC(=O)C(NC(=O)CSc1nnc(COc2ccc(Cl)cc2)n1-c1ccccc1)C(C)C (stereo unspecified)
Reply text: 21.9 µM (inactive)

Inquiry: Supply GI50 value. Item: CCOc1cccc2ccc[n+](CC)c12
Reply text: > 100 µM (inactive)

Inquiry: Supply GI50 value. Item: OC1(c2ccccc2)c2ccccc2N=C2NCCN21 (stereo unspecified)
Reply text: 50.6 µM (inactive)

Inquiry: Supply GI50 value. Item: O=C(O)CC(CC(=O)O)C(=O)O
Reply text: > 100 µM (inactive)

Inquiry: Supply GI50 value. Item: NC(=S)N/N=C1\CCc2ccccc2C1
Reply text: > 100 µM (inactive)

Inquiry: Supply GI50 value. Item: [O-][n+]1ccccc1Sc1nc(Sc2cccc[n+]2[O-])nc(Sc2cccc[n+]2[O-])n1
Reply text: 1.26 µM (inactive)

Inquiry: Supply GI50 value. Item: C[C@H](N)C(=O)Nc1ccc(-c2nc3ccccc3s2)cc1
Reply text: 10.9 µM (inactive)

Inquiry: Supply GI50 value. Item: CC1=NN(c2nc(N)nc(COCc3nc(N)nc(N4N=C(C)CC4(C)C)n3)n2)C(C)(C)C1
Reply text: > 100 µM (inactive)

Inquiry: Supply GI50 value. Item: CC1OC(n2cc(Cl)c(=O)[nH]c2=O)C=C(OC(=O)c2ccccc2)C1=O (stereo unspecified)
Reply text: > 100 µM (inactive)

Inquiry: Supply GI50 value. Item: CN(CCNCc1cn(C)c2c1ccc1ccccc12)CCNCc1cn(C)c2c1ccc1ccccc12
Reply text: 0.726 µM (active)

Inquiry: Supply GI50 value. Item: CC(C)Cn1cnc2c(NCC(C)O)nc3ccccc3c21 (stereo unspecified)
Reply text: > 100 µM (inactive)

Inquiry: Supply GI50 value. Item: Cc1cc(O)c(O)c(Oc2cc(C)cc(O)c2O)c1
Reply text: 14.3 µM (inactive)

Inquiry: Supply GI50 value. Item: Cc1cccc(Nc2nc(NNC(=O)Cc3ccccc3)nc(NNC(=O)c3ccncc3)n2)c1
Reply text: > 10 µM (inactive)

Inquiry: Supply GI50 value. Item: COc1ccc2c(c1)CN1C(=N2)CSC1c1c(Cl)cccc1[N+](=O)[O-] (stereo unspecified)
Reply text: 18.3 µM (inactive)

Inquiry: Supply GI50 value. Item: CCCCCCCCCC(=O)Oc1cccc2onc(C)c12
Reply text: > 100 µM (inactive)

Inquiry: Supply GI50 value. Item: Cc1cc(NS(=O)(=O)c2ccc(NC(=O)c3cccc4c(N)c5ccccc5nc34)cc2)no1
Reply text: 27.5 µM (inactive)

Inquiry: Supply GI50 value. Item: CC(O)/C=C/C1OC(=O)CC1Nc1ccc(C=O)cc1 (stereo unspecified)
Reply text: 22.3 µM (inactive)

Inquiry: Supply GI50 value. Item: CC(=O)[C@H]1[C@H](O)C[C@@]2(C)[C@@H]3CCc4cc(O)c(OC5OC(CO)C(O)C(O)C5O)cc4C3(C)C(=O)C[C@]12C (stereo partly specified)
Reply text: > 100 µM (inactive)

Inquiry: Supply GI50 value. Item: O=C(OCc1ccccc1)N1N=NC2C1C1CC(OCc3ccccc3)(OCc3ccccc3)C2O1 (stereo unspecified)
Reply text: > 100 µM (inactive)

Inquiry: Supply GI50 value. Item: O=C(O)c1ccc(Nc2ccnc3cc(Cl)ccc23)cc1O
Reply text: > 100 µM (inactive)

Inquiry: Supply GI50 value. Item: [N-]=[N+]=NC1=C(N=[N+]=[N-])c2cccc3cccc(c23)C1=O
Reply text: > 100 µM (inactive)

Inquiry: Supply GI50 value. Item: O=C(O)C1=C(C(=O)O)N(c2ccncc2)C(c2ccco2)=CC1c1ccccc1[N+](=O)[O-] (stereo unspecified)
Reply text: 7.01 µM (inactive)

Inquiry: Supply GI50 value. Item: COc1ccc(C[C@H]2COC(=O)[C@@H]2Cc2cc(OC)c(OC)c(OC)c2)cc1OC
Reply text: 90.4 µM (inactive)

Inquiry: Supply GI50 value. Item: CC(C)[C@]12O[C@H]1[C@@H]1O[C@@]13[C@@]1(C)CCC4=C(COC4=O)[C@@H]1C[C@@H]1O[C@@]13C2=O [TRIPTONIDE]
Reply text: 0.0173 µM (active)

Inquiry: Supply GI50 value. Item: CC(C)COP(=O)(OCC(C)C)C(NS(=O)(=O)c1ccccc1)(C(F)(F)F)C(F)(F)F
Reply text: 12.8 µM (inactive)

Inquiry: Supply GI50 value. Item: CCCCC[C@H](O)[C@H](C)C=C1SCCCS1
Reply text: > 100 µM (inactive)

Inquiry: Supply GI50 value. Item: O=C1C(Cl)=C(N2CCC[C@H]2CO)C(=O)c2c(O)ccc(O)c21
Reply text: 1.95 µM (inactive)

Inquiry: Supply GI50 value. Item: CN(C)c1ccc([S+]([O-])Nc2ccccc2)cc1 (stereo unspecified)
Reply text: 38.5 µM (inactive)

Inquiry: Supply GI50 value. Item: N=C(N)N/N=C/c1c(-c2ccc([N+](=O)[O-])cc2)nc2sc(Cl)cn12
Reply text: 1.37 µM (inactive)

Inquiry: Supply GI50 value. Item: C#CCN(N=O)C(=O)NCCCCC(NC(=O)OCc1ccccc1)C(=O)OCc1ccccc1 (stereo unspecified)
Reply text: 27 µM (inactive)

Inquiry: Supply GI50 value. Item: CCOC(=O)c1c(N2CCOCC2)[nH]c(=O)c(C(c2ccc(Cl)c([N+](=O)[O-])c2)c2c(O)c(C(=O)OCC)c(N3CCOCC3)[nH]c2=O)c1O
Reply text: 20.7 µM (inactive)

Inquiry: Supply GI50 value. Item: Cc1ccc(S(=O)(=O)c2ccc([N+](=O)[O-])o2)cc1
Reply text: 1.83 µM (inactive)

Inquiry: Supply GI50 value. Item: O=Cc1cn(CCCCCCCCn2cc(C=O)c3ccccc32)c2ccccc12
Reply text: > 10 µM (inactive)

Inquiry: Supply GI50 value. Item: O=C1N(c2ccccc2)C(=O)C2(SC=NN2Cc2ccccc2)N1c1ccccc1 (stereo unspecified)
Reply text: > 100 µM (inactive)

Inquiry: Supply GI50 value. Item: c1ccc2c(c1)cc1c3[nH]c4ccccc4c3ccn21
Reply text: > 10 µM (inactive)

* * *

tested on: SN12C; assay: NCI tumour cell line growth inhibition, 48 h
Calls of active or inactive are those of the source. No stated cut-off is given here; in the data, active = GI50 up to about 1.1 µM and inactive = higher.
measured quantity: GI50

Inquiry: Supply GI50 value. Item: CCN(CC)CCN1C(=O)c2c(c(-c3ccccc3)c3ccccc3c2-c2ccccc2)C1=O
Reply text: > 100 µM (inactive)

Inquiry: Supply GI50 value. Item: COc1ccc2c(c1OC)C1=C(C2=O)c2cc3c(cc2CCN1)OCO3
Reply text: 6.76 µM (inactive)

Inquiry: Supply GI50 value. Item: Cc1ccc2c(O)cc(-c3cc(C)sc3C)nc2n1
Reply text: 6.44 µM (inactive)

Inquiry: Supply GI50 value. Item: Cc1cccc(Nc2nc3ccccc3nc2NS(=O)(=O)c2ccccc2)c1
Reply text: 22.2 µM (inactive)

Inquiry: Supply GI50 value. Item: Cc1cccc(C2ON=C(c3ccccc3)N2C23CC4CC(CC(C4)C2)C3)c1 (stereo not given)
Reply text: > 10 µM (inactive)

Inquiry: Supply GI50 value. Item: CC1=CCCC(C)(O)C2CC(CCC3(C)OC3CC1)C(C)C(=O)O2 (stereo not given)
Reply text: > 100 µM (inactive)

Inquiry: Supply GI50 value. Item: C[C@@H](c1ccccc1)N(CC#N)C1CCC[C@H]1O (stereo not given in full)
Reply text: > 100 µM (inactive)

Inquiry: Supply GI50 value. Item: O=C(O)CC(CC(=O)O)C(=O)O [TRICARBALLYLIC ACID]
Reply text: > 100 µM (inactive)

Inquiry: Supply GI50 value. Item: Cc1cc(C)c2c(-c3ccccc3)cc(=O)[nH]c2c1
Reply text: > 100 µM (inactive)

Inquiry: Supply GI50 value. Item: CCOP(=O)(OCC)OC1CC(n2cnc3c(N(CC)CC)ncnc32)OC1CO[Si](C)(C)C(C)(C)C (stereo not given)
Reply text: 19.4 µM (inactive)
